Target: Polyadenylate-binding protein 1 (Homo sapiens, UniProt P11940)
Sequence (P11940 whole entry): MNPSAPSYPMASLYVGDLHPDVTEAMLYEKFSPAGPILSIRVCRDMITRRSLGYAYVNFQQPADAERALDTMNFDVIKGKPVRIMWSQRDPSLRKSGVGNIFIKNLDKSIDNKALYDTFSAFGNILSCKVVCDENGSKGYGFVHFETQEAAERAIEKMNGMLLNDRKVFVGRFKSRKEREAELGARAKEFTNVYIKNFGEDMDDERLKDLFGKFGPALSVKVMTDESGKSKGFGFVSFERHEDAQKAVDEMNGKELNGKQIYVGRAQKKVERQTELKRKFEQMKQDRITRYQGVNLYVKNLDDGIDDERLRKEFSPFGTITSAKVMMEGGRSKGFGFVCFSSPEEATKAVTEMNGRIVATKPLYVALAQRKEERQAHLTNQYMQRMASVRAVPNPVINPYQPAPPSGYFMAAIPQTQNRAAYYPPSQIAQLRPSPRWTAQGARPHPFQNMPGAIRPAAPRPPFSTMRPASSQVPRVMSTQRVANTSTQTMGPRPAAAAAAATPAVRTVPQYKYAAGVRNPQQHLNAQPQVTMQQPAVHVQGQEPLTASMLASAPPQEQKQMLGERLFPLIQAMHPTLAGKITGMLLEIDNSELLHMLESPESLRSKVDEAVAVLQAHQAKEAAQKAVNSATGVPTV
Test: PABP1 MLLE–PAM2 binding inhibitor potency, dose response, biochemical, fluorescence polarization, FITC-PAM2 peptide (AID 602259)
Type: functional
Conditions: read-out: IC50_Mean
Calls of active or inactive are those of the source. No stated cut-off is given here; in the data, active = IC50 of 20 µM or less and inactive = more.
# IC50 per record follows

Look over these answered cases.
| COMPOUND | REPORTED VALUE |
| --- | --- |
| Cc1ccc2sc(C)[n+](CCC(C)S(=O)(=O)[O-])c2c1 (stereo not drawn) | > 66 µM (inactive) |
| Cc1ccccc1Nc1nc(N)nc(O)c1N=O | 38.2 µM (inactive) |

Item under review: CC12CCCCN1CCCc1c2[nH]c2ccccc12 (stereo not drawn) . Reported IC50?
> 66 µM (inactive)
